- target.of.assay: T1, FcεRI-IgG (UniProt P12319 26-205)
- T1 construct: extracellular domain; Produced from CHO cells (Genentech); also called FcεRI-Fc; bivalent fusion protein of the extracellular domain of FcεRI and the Fc domain of IgG; not shown: Fc domain of IgG
- T1 sequence (looked up): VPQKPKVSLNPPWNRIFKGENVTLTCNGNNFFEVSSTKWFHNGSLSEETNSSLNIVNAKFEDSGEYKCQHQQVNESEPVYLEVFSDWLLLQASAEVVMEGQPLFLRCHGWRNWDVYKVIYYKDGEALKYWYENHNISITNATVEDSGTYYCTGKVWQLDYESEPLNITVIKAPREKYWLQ
- protocol.text: competitive phage ELISA: g3 peptide-phage on immobilized FcεRI-IgG, soluble FcεRI-IgG titrated
Where no end group is shown, it is not given here.
assay.readout: IC50 (µM)
# unit: µM | format: bare number

>>> endpoint_value("NLPTCTEGPWGWVCMAAD (not fully specified (bridges); cysteine pairing not given here, not shown: fused to M13 gene-3 protein (g3p) on phage) [g3b.3 peptide-phage]")
0.007
>>> endpoint_value("AMAQCTEGPWGWVCMAAD (not fully specified; cysteine pairing not given here, not shown: fused to M13 gene-3 protein (g3p) on phage) [g3b.5 peptide-phage]")
0.01

Now examine the next entry.
Which IC50 value belongs to GRTECTEGPWGWVCMAAD (not fully specified (bridges); cysteine pairing not given here, not shown: fused to M13 gene-3 protein (g3p) on phage) [g3b.8 peptide-phage] ?
0.014
